- ASSAYED_TARGET: Estrogen receptor (Homo sapiens)
- ASSAY_REMARKS: qHTS assay to identify small molecule agonists of the estrogen receptor alpha (ER-alpha) signaling pathway in the presence of an antagonist (AID 1259383); also: top concentration of the series differs between compounds; nearly all actives have a fitted effect of over 15% in size
- COND: VM7Luc4E2 cells, ERE-luciferase, +ICI-182,780, 22 h; series mostly up to 92.4 µM
Active and inactive are the calls of the source. Calls follow the shape of the full dose curve.
MEASUREMENT_KIND: outcome

MOLECULE_SMILES | OBSERVED_MEASUREMENT
Nc1c2c(nc3ccccc13)CCCC2 | inactive
NC(=O)c1cccnc1 | inactive
C=CCc1ccc(O)c(OC)c1 | inactive

----------
- ASSAY_REMARKS: qHTS assay for small molecule agonists of the antioxidant response element (ARE) signaling pathway - cell viability counter screen (AID 743203); also: nearly all actives have a fitted effect of over 55% in size
- COND: ARE-bla HepG2 viability, CellTiter-Glo luminescence, 16 h; series mostly up to 73.3 µM
Results filed as inconclusive are left out. Activity calls are given as the source filed them. Calls follow the shape of the full dose curve.
// one of active, inactive, no free text

COMPOUND | CAT
C=CCc1ccc(O)c(OC)c1 | inactive
CCCCCCc1ccc(O)cc1O | inactive
CS(=O)(=O)OCCCCOS(C)(=O)=O | inactive
COc1ccc2cc(S(=O)(=O)N[C@H](CC(=O)N[C@H](Cc3ccc(CN4[C@H](C)CCC[C@@H]4C)cc3)C(=O)N(C)C(C)C)c3ccc4c(c3)OCO4)ccc2c1 | active
O=C1O[C@H]([C@@H](O)CO)C(O)=C1O | inactive

INPUT: Could you kindly confirm the outcome this assay logged for C1=CC2C3C=CC(C3)C2C1 (stereo unspecified) ?
OUTPUT: inactive

INPUT: Could you kindly confirm the outcome this assay logged for C=C(C)C(=O)OCC(C)O (stereo unspecified) ?
OUTPUT: inactive

----------
- ASSAY_REMARKS: qHTS RealTime-Glo MT Cell Viability Assay in HEK293 cells - 24 hour (AID 1224886); also: nearly all actives have a fitted effect of over 50% in size
- COND: RealTime-Glo luminescence; series mostly up to 76.8 µM
- Source text: National Center for Advancing Translational Sciences [NCATS] NIH Chemical Genomics Center [NCGC] U.S. Environmental Protection Agency [EPA] National Institutes of Environmental Health Sciences [NIEHS] National Toxicology Program [NTP] U.S. Food and Drug Administration [FDA] Measure of cell viability is critical in the cell-base assay. Analysis of cell viability is necessary for the characterization of cell responses to cytotoxic drugs and environmental stress. […]
Results filed as inconclusive are left out. Activity calls are given as the source filed them. Calls come from the whole dose curve; as a rule, active = well fitted cell-killing curve with a large enough effect in the repeat runs; inconclusive = weak or mixed curves, or effect the other way; inactive = flat fitted curve, though single readings scatter.
// one of 1.0 (active), 0.0 (inactive), no free text

Sample answers from the record:
MOLECULE | CAT
C/C=C/C=C/C(=O)O | 0.0
CS(=O)(=O)OCCCCOS(C)(=O)=O | 0.0
CC/C(=C(\c1ccccc1)c1ccc(OCCN(C)C)cc1)c1ccccc1 | 1.0
CN[C@H]1CC[C@@H](c2ccc(Cl)c(Cl)c2)c2ccccc21 | 1.0

INPUT: Could you kindly confirm the outcome this assay logged for CC1(C)O[C@@H]2C[C@H]3[C@@H]4CCC5=CC(=O)C=C[C@]5(C)[C@@]4(F)[C@@H](O)C[C@]3(C)[C@]2(C(=O)CO)O1 ?
OUTPUT: 0.0

INPUT: Could you kindly confirm the outcome this assay logged for Nc1ccc(S(N)(=O)=O)cc1 ?
OUTPUT: 0.0

INPUT: Could you kindly confirm the outcome this assay logged for Cc1cc(=O)oc2cc(O)ccc12 ?
OUTPUT: 0.0

INPUT: Could you kindly confirm the outcome this assay logged for Nc1ccc([N+](=O)[O-])cc1O ?
OUTPUT: 0.0

INPUT: Could you kindly confirm the outcome this assay logged for CN(C)CCOC(C)(c1ccccc1)c1ccccn1 (configuration not stated) ?
OUTPUT: 0.0

----------
- ASSAY_REMARKS: qHTS assay to identify small molecule phospholipidosis (PLD) inducers (AID 1259344)
- COND: HepG2 phospholipidosis, LipidTOX Red imaging, 24 h; series mostly up to 38.3 µM
Records with an inconclusive call do not appear. Active and inactive are the calls of the source. Calls come from the whole dose curve; as a rule, active = well fitted activation curve with a large enough effect; inconclusive = small, poorly fitted or top-dose-only effect; inactive = flat fitted curve, though single readings scatter.
// one of Y (active), N (inactive), no free text

INPUT: Could you kindly confirm the outcome this assay logged for C=CCc1ccc(O)c(OC)c1 ?
OUTPUT: N

INPUT: Could you kindly confirm the outcome this assay logged for O=C1OC2(c3ccccc31)c1cc(Br)c(O)c(Br)c1Oc1c2cc(Br)c(O)c1Br ?
OUTPUT: N

INPUT: Could you kindly confirm the outcome this assay logged for CS(=O)(=O)OCCCCOS(C)(=O)=O ?
OUTPUT: N

INPUT: Could you kindly confirm the outcome this assay logged for CC(=O)Nc1c(I)c(NC(C)=O)c(I)c(C(=O)O)c1I ?
OUTPUT: N

INPUT: Could you kindly confirm the outcome this assay logged for Nc1ccc(S(N)(=O)=O)cc1 ?
OUTPUT: N

INPUT: Could you kindly confirm the outcome this assay logged for O=S1(=O)OC(c2ccc(O)cc2)(c2ccc(O)cc2)c2ccccc21 ?
OUTPUT: N

INPUT: Could you kindly confirm the outcome this assay logged for Nc1c(N=Nc2ccc(-c3ccc(N=Nc4cc(S(=O)(=O)O)c5ccccc5c4N)cc3)cc2)cc(S(=O)(=O)O)c2ccccc12 ?
OUTPUT: N

INPUT: Could you kindly confirm the outcome this assay logged for CNNCc1ccc(C(=O)NC(C)C)cc1 ?
OUTPUT: N

INPUT: Could you kindly confirm the outcome this assay logged for CCc1nc(N)nc(N)c1-c1ccc(Cl)cc1 ?
OUTPUT: N

INPUT: Could you kindly confirm the outcome this assay logged for CN1[C@@H]2CC(OC(=O)[C@H](CO)c3ccccc3)C[C@H]1[C@@H]1O[C@@H]12 (stereo partly specified) ?
OUTPUT: N

INPUT: Could you kindly confirm the outcome this assay logged for CC12CCC(CC1)C(C)(C)O2 ?
OUTPUT: N

INPUT: Could you kindly confirm the outcome this assay logged for CN(C)C(=O)Nc1ccc(Cl)c(Cl)c1 ?
OUTPUT: N

----------
- ASSAY_REMARKS: qHTS assay for small molecule agonists of the p53 signaling pathway - cell viability (AID 651633); also: nearly all actives have a fitted effect of over 30% in size; also: potency is read from the fitted curve at half-maximal effect
- COND: p53RE-bla HCT-116 viability, ATP luminescence, 16 h; series mostly up to 83.3 µM
Results filed as inconclusive are left out. Activity calls are given as the source filed them. Calls come from the whole dose curve.
MEASUREMENT_KIND: Potency

Examples from the recorded data:
MOLECULE | Potency
Cc1c(C(=O)O)c(O)cc2c1C(=O)c1c(O)c([C@@H]3O[C@H](CO)[C@@H](O)[C@H](O)[C@H]3O)c(O)c(O)c1C2=O | inactive
C/C=C/C=C/C(=O)O | inactive
COc1cccc(O)c1O | inactive
CC(=O)C(=O)O | inactive
NC1CCCCC1 | inactive

INPUT: # input molecule: Cc1ccc(S(=O)(=O)O)cc1 ; wanted: its Potency
OUTPUT: inactive

INPUT: # input molecule: NS(=O)(=O)c1cc2c(cc1Cl)NCNS2(=O)=O ; wanted: its Potency
OUTPUT: inactive

INPUT: # input molecule: Nc1ccc([N+](=O)[O-])cc1O ; wanted: its Potency
OUTPUT: inactive

INPUT: # input molecule: Nc1c(N=Nc2ccc(-c3ccc(N=Nc4cc(S(=O)(=O)O)c5ccccc5c4N)cc3)cc2)cc(S(=O)(=O)O)c2ccccc12 ; wanted: its Potency
OUTPUT: inactive

INPUT: # input molecule: C1CCC(C(CC2CCCCN2)C2CCCCC2)CC1 (stereo not drawn) ; wanted: its Potency
OUTPUT: 23.7 µM (active)

----------
- ASSAY_REMARKS: qHTS assay to identify small molecule antagonists of the estrogen related receptor (ERR) signaling pathway from Tox21 library - cell viability counter screen (AID 1224834); also: nearly all actives have a fitted effect of over 30% in size
- COND: ERR reporter cells viability, CellTiter-Fluor, 17.5 h; series mostly up to 92.4 µM
Results filed as inconclusive are left out. Activity calls are given as the source filed them. The call rests on the fitted dose curve; in most records, active means well fitted cell-killing curve with a large enough effect in the repeat runs; inconclusive means weak or mixed curves; inactive means flat fitted curve, though single readings scatter.
// one of active, inactive, no free text

COMPOUND | CAT
Cc1cn([C@H]2C=C[C@@H](CO)O2)c(=O)[nH]c1=O | inactive
CCCCCCc1ccc(O)cc1O | active
CN(C)CCOC(c1ccccc1)c1ccccc1 | inactive
Cc1ccc(S(=O)(=O)O)cc1 | inactive
O=C1O[C@H]([C@@H](O)CO)C(O)=C1O | inactive

INPUT: Could you kindly confirm the outcome this assay logged for CC12CCC(CC1)C(C)(C)O2 ?
OUTPUT: inactive

INPUT: Could you kindly confirm the outcome this assay logged for O=C1NS(=O)(=O)c2ccccc21 ?
OUTPUT: inactive

INPUT: Could you kindly confirm the outcome this assay logged for CC(=O)CCC(=O)O ?
OUTPUT: inactive

INPUT: Could you kindly confirm the outcome this assay logged for O=c1[nH]cnc2c1ncn2[C@H]1CC[C@@H](CO)O1 ?
OUTPUT: inactive

INPUT: Could you kindly confirm the outcome this assay logged for Cc1cc(=O)oc2cc(O)ccc12 ?
OUTPUT: inactive

INPUT: Could you kindly confirm the outcome this assay logged for Oc1ccccc1 ?
OUTPUT: inactive

INPUT: Could you kindly confirm the outcome this assay logged for NC1CCCCC1 ?
OUTPUT: inactive

INPUT: Could you kindly confirm the outcome this assay logged for CS(=O)(=O)OCCCCOS(C)(=O)=O ?
OUTPUT: inactive

INPUT: Could you kindly confirm the outcome this assay logged for CCOc1ccc(NC(C)=O)cc1 ?
OUTPUT: inactive

INPUT: Could you kindly confirm the outcome this assay logged for CC(C)NCC(O)c1ccc(O)c(O)c1 (stereo not drawn) ?
OUTPUT: inactive

INPUT: Could you kindly confirm the outcome this assay logged for Cc1ncc([N+](=O)[O-])n1CCO ?
OUTPUT: inactive

INPUT: Could you kindly confirm the outcome this assay logged for O=C(O)c1ccccc1 ?
OUTPUT: inactive

INPUT: Could you kindly confirm the outcome this assay logged for CNNCc1ccc(C(=O)NC(C)C)cc1 ?
OUTPUT: inactive

INPUT: Could you kindly confirm the outcome this assay logged for CC(C)c1c(C(=O)Nc2ccccc2)c(-c2ccccc2)c(-c2ccc(F)cc2)n1CC[C@@H](O)C[C@@H](O)CC(=O)O ?
OUTPUT: inactive

INPUT: Could you kindly confirm the outcome this assay logged for NS(=O)(=O)c1cc2c(cc1Cl)NCNS2(=O)=O ?
OUTPUT: inactive

INPUT: Could you kindly confirm the outcome this assay logged for C1CCC(C(CC2CCCCN2)C2CCCCC2)CC1 (stereo not drawn) ?
OUTPUT: active

INPUT: Could you kindly confirm the outcome this assay logged for COc1ccc2cc(S(=O)(=O)N[C@H](CC(=O)N[C@H](Cc3ccc(CN4[C@H](C)CCC[C@@H]4C)cc3)C(=O)N(C)C(C)C)c3ccc4c(c3)OCO4)ccc2c1 ?
OUTPUT: active

INPUT: Could you kindly confirm the outcome this assay logged for CN1[C@@H]2CC(OC(=O)[C@H](CO)c3ccccc3)C[C@H]1[C@@H]1O[C@@H]12 (stereo partly drawn) ?
OUTPUT: inactive

INPUT: Could you kindly confirm the outcome this assay logged for NC(=O)c1cccnc1 ?
OUTPUT: inactive
